Each recorded value in this set is attributed to patent US7582611B2.

target: Motilin Receptor (Oryctolagus cuniculus); construct: strips of longitudinal smooth muscle were sliced from the segments; from tissue; host or cells: rabbit duodenum longitudinal smooth muscle strips; experiment: Tissue based assay for motilin agonist potency (rabbit duodenum contractility); assay type: cell-based; conditions: rabbit duodenum strips, contraction normalized to 1 μM carbachol; read-out: Motilin Receptor Agonist Activity (EC50)
Sequence (G1T803 1-400): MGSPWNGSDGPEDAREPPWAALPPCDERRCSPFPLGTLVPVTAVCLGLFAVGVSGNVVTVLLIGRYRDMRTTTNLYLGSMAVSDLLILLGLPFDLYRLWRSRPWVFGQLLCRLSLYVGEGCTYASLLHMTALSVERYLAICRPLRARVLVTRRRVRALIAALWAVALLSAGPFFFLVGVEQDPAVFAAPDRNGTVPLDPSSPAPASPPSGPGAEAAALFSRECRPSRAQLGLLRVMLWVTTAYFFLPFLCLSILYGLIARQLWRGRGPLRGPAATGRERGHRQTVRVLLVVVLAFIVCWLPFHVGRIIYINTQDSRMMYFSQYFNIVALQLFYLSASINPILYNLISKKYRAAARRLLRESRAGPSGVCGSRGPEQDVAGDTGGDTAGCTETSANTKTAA
Reported Property: log10(EC50) (log10 of the value in nM)
Log10 applied to EC50; unit prior to transform: nM.

* CC[C@H]1OC(=O)[C@H](C)[C@@H](O[C@H]2C[C@@](C)(OC)[C@@H](O)[C@H](C)O2)[C@H](C)[C@@H](O[C@@H]2O[C@H](C)C[C@H](N(C)C(C)C)[C@H]2O)[C@](C)(O)C[C@@H](C)[C@H](OS(=O)(=O)N(C)C)[C@H](C)[C@@H](O)[C@]1(C)O | 1.96
* CC[C@H]1OC(=O)[C@H](C)[C@@H](O[C@H]2C[C@@](C)(OC)[C@@H](O)[C@H](C)O2)[C@H](C)[C@@H](O[C@@H]2O[C@H](C)C[C@H](N(C)C(C)C)[C@H]2O)[C@](C)(O)C[C@@H](C)[C@H](OCCNS(C)(=O)=O)[C@H](C)[C@@H](O)[C@]1(C)O | 2.38
* CC[C@H]1OC(=O)[C@H](C)[C@@H](O[C@H]2C[C@@](C)(OC)[C@@H](O)[C@H](C)O2)[C@H](C)[C@@H](O[C@@H]2O[C@H](C)C[C@H](N(C)C(C)C)[C@H]2O)[C@](C)(O)C[C@@H](C)[C@H](OCC(N)=O)[C@H](C)[C@@H](O)[C@]1(C)O | 1.72

Query block: log10(EC50) for CC[C@H]1OC(=O)[C@H](C)[C@@H](O[C@H]2C[C@@](C)(OC)[C@@H](O)[C@H](C)O2)[C@H](C)[C@@H](O[C@@H]2O[C@H](C)C[C@H](N(C)C(C)C)[C@H]2O)[C@](C)(OC)C[C@@H](C)[C@H](OCC(=O)NC)[C@H](C)[C@@H](O)[C@]1(C)O ?
Result block: 2.60

Query block: Queued: CC[C@H]1OC(=O)[C@H](C)[C@@H](O[C@H]2C[C@@](C)(OC)[C@@H](O)[C@H](C)O2)[C@H](C)[C@@H](O[C@@H]2O[C@H](C)C[C@H](N(C)C(C)C)[C@H]2O)[C@](C)(O)C[C@@H](C)[C@H](NS(=O)(=O)CC)[C@H](C)[C@@H](O)[C@]1(C)O
Result block: 2.54

Query block: Queued: CC[C@H]1OC(=O)[C@H](C)[C@@H](O[C@H]2C[C@@](C)(OC)[C@@H](O)[C@H](C)O2)[C@H](C)[C@@H](O[C@@H]2O[C@H](C)C[C@H](N(C)C(C)C)[C@H]2O)[C@](C)(O)C[C@@H](C)[C@H](OCC(=O)NCCO)[C@H](C)[C@@H](O)[C@]1(C)O
Result block: 2.08

Query block: Queued: CCOC(=O)NCCO[C@@H]1[C@H](C)[C@@H](O)[C@](C)(O)[C@@H](CC)OC(=O)[C@H](C)[C@@H](O[C@H]2C[C@@](C)(OC)[C@@H](O)[C@H](C)O2)[C@H](C)[C@@H](O[C@@H]2O[C@H](C)C[C@H](N(C)C(C)C)[C@H]2O)[C@](C)(O)C[C@H]1C
Result block: 2.00

Query block: Queued: CC[C@H]1OC(=O)[C@H](C)[C@@H](O[C@H]2C[C@@](C)(OC)[C@@H](O)[C@H](C)O2)[C@H](C)[C@@H](O[C@@H]2O[C@H](C)C[C@H](N(C)CC(C)C)[C@H]2O)[C@](C)(O)C[C@@H](C)[C@H](NS(C)(=O)=O)[C@H](C)[C@@H](O)[C@]1(C)O
Result block: 2.15

Query block: Queued: CCNC(=S)NCCO[C@@H]1[C@H](C)[C@@H](O)[C@](C)(O)[C@@H](CC)OC(=O)[C@H](C)[C@@H](O[C@H]2C[C@@](C)(OC)[C@@H](O)[C@H](C)O2)[C@H](C)[C@@H](O[C@@H]2O[C@H](C)C[C@H](N(C)C(C)C)[C@H]2O)[C@](C)(O)C[C@H]1C
Result block: 2.34

Query block: Queued: CC[C@H]1OC(=O)[C@H](C)[C@@H](O[C@H]2C[C@@](C)(OC)[C@@H](O)[C@H](C)O2)[C@H](C)[C@@H](O[C@@H]2O[C@H](C)C[C@H](N(C)C[C@H](C)O)[C@H]2O)[C@](C)(O)C[C@@H](C)[C@H](OCCOC)[C@H](C)[C@@H](O)[C@]1(C)O
Result block: 3.04
